Test system: blood pressure / hemodynamics
Test Summary: Hemodynamic effects during isoflurane anesthesia
Type: in vivo, rats
Condition Context: rats, 60 mg/kg i.p., isoflurane anesthesia
Observation Type: Hemodynamic Effects

INSERT INTO assay_data (compound, observation_type, endpoint_result) VALUES
  ('O=C1Nc2ccccc2C1(O)C(F)(F)F (stereo not shown)', 'Hemodynamic Effects', 'none'),
  ('CN1C(=O)C(O)(C(F)(F)F)c2ccccc21 (stereo not shown)', 'Hemodynamic Effects', 'none'),
  ('NC(=O)C(O)(c1ccc(Cl)cc1)C(F)(F)F (racemic)', 'Hemodynamic Effects', 'none');

* * *

Test system: Isoflurane anesthesia (minimum alveolar concentration, MAC)
Test Summary: General anesthesia test: reduction of isoflurane MAC after i.p. compound
Type: in vivo, rats
Condition Context: rat, in vivo
Observation Type: anesthetic activity

INSERT INTO assay_data (compound, observation_type, endpoint_result) VALUES
  ('NC(=O)C(O)(c1ccccc1)C(F)(F)Cl (centres unmarked)', 'anesthetic activity', 'high activity'),
  ('NC(=O)C(O)(c1ccc(Cl)cc1)C(F)(F)F (racemic)', 'anesthetic activity', 'very active'),
  ('NC(=O)C(O)(c1cccc(F)c1)C(F)(F)F (racemic)', 'anesthetic activity', 'high activity'),
  ('NC(=O)C(O)(c1ccc(F)cc1)C(F)(F)F (centres unmarked)', 'anesthetic activity', 'very active');

* * *

Entries annotated with measured MAC value of Isoflurane at 60 mg/kg of compound
System: Isoflurane anesthesia (minimum alveolar concentration, MAC)
Test Summary: General anesthesia test: reduction of isoflurane MAC after i.p. compound
Type: in vivo, rats
Condition Context: rats, 60 mg/kg i.p. in peanut oil; 1.2% isoflurane generates 100% anesthesia
Give your result in % as a bare value.

In the examples that follow, each entry is paired with its recorded MAC value of Isoflurane at 60 mg/kg of compound.
INSERT INTO results (compound, endpoint_result) VALUES
  ('NC(=O)C(O)(c1ccccc1)C(F)(F)F (centres unmarked)', 0.65),
  ('CN1C(=O)C(O)(C(F)(F)F)c2ccccc21 (centres unmarked)', 0.95),
  ('NC(=O)C(O)(c1cccc(F)c1)C(F)(F)F (racemic)', 0.70),
  ('O=C1Nc2ccccc2C1(O)C(F)(F)F (centres unmarked)', 1.05);

Could you now consider this next compound?
Query block: Query the reported MAC value of Isoflurane at 60 mg/kg of compound for Isoflurane anesthesia (minimum alveolar concentration, MAC); item: NC(=O)C(O)(c1ccc(Cl)cc1)C(F)(F)F (racemic)
Result block: 0.65

* * *

System: Isoflurane anesthesia (minimum alveolar concentration, MAC)
Test Summary: General anesthesia test: reduction of isoflurane MAC after i.p. compound
Format: in vivo, rats
Condition Context: rats, 60 mg/kg i.p.; relative to 1.2% isoflurane
Entries annotated with measured Percent Reduction in Isoflurane
Give your result in % as a bare value.

In the examples that follow, each entry is paired with its recorded Percent Reduction in Isoflurane.
INSERT INTO measurements (compound, reading_unit, endpoint_result) VALUES
  ('NC(=O)C(O)(c1ccc(Cl)cc1)C(F)(F)F (racemic)', '%', 46),
  ('O=C1Nc2ccccc2C1(O)C(F)(F)F (centres unmarked)', '%', 12.5),
  ('NC(=O)C(O)(c1ccccc1)C(F)(F)F (centres unmarked)', '%', 46),
  ('NC(=O)C(O)(c1cccc(F)c1)C(F)(F)F (racemic)', '%', 42);

Could you now consider this next compound?
Query block: Query the reported Percent Reduction in Isoflurane for Isoflurane anesthesia (minimum alveolar concentration, MAC); item: CN1C(=O)C(O)(C(F)(F)F)c2ccccc21 (centres unmarked)
Result block: 20.8
